# target or system: Epidermal growth factor receptor (Homo sapiens, UniProt P00533, E746-A750DEL)
# Sequence (P00533 whole entry E746-A750del, looked up): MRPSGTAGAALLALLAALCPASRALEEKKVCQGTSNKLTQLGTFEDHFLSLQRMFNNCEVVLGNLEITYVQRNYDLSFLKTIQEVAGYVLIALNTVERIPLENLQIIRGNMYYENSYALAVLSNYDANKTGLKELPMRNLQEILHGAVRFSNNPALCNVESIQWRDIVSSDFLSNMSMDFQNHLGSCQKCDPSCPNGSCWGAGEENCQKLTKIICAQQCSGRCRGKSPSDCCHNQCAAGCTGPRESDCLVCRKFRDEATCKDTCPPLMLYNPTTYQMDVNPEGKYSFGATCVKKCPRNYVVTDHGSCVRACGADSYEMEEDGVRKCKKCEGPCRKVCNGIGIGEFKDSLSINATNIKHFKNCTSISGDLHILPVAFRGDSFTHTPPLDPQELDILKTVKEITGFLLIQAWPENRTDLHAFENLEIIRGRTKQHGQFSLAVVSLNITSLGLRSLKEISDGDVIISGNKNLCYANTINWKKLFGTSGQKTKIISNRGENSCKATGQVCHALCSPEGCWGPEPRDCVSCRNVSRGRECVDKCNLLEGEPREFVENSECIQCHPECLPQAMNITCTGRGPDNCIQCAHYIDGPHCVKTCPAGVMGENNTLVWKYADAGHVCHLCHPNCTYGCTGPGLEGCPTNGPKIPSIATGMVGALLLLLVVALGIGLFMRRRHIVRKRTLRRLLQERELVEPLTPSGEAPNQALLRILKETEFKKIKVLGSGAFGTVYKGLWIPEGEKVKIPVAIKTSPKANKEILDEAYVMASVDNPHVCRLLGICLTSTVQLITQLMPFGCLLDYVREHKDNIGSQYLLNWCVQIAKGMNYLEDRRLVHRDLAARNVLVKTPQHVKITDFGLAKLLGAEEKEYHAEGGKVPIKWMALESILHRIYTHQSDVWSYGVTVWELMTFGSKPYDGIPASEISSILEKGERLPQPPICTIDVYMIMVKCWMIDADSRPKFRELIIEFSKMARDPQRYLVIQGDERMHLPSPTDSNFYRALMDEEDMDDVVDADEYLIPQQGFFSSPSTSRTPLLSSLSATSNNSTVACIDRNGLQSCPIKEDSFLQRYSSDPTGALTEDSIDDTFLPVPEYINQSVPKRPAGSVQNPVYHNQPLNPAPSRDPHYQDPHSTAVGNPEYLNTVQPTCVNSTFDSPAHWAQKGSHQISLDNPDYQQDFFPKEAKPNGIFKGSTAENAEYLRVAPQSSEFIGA
# assay procedure: Binding affinity to human partial length EGFR E746-A750 deletion mutant expressed in bacterial expression system by KinomeScan assay
pKd: −log10 of the molar value.
observation type: pKd

>>> experimental_value("CCOc1cc2ncc(C#N)c(Nc3ccc(OCc4cccc(F)c4)c(Cl)c3)c2cc1NC(=O)CC1CCSS1 (stereo not drawn)")
7.32
>>> experimental_value("CCOc1cc2ncc(C#N)c(Nc3ccc(OCc4cccc(F)c4)c(Cl)c3)c2cc1NC(=O)C(CSC(C)=O)CSC(C)=O")
6.74
>>> experimental_value("CCOc1cc2ncc(C#N)c(Nc3ccc(OCc4cccc(F)c4)c(Cl)c3)c2cc1NC(=O)C1CSSC1")
6.96

###

# target or system: Epidermal growth factor receptor (Homo sapiens, UniProt P00533)
# Sequence (P00533 whole entry): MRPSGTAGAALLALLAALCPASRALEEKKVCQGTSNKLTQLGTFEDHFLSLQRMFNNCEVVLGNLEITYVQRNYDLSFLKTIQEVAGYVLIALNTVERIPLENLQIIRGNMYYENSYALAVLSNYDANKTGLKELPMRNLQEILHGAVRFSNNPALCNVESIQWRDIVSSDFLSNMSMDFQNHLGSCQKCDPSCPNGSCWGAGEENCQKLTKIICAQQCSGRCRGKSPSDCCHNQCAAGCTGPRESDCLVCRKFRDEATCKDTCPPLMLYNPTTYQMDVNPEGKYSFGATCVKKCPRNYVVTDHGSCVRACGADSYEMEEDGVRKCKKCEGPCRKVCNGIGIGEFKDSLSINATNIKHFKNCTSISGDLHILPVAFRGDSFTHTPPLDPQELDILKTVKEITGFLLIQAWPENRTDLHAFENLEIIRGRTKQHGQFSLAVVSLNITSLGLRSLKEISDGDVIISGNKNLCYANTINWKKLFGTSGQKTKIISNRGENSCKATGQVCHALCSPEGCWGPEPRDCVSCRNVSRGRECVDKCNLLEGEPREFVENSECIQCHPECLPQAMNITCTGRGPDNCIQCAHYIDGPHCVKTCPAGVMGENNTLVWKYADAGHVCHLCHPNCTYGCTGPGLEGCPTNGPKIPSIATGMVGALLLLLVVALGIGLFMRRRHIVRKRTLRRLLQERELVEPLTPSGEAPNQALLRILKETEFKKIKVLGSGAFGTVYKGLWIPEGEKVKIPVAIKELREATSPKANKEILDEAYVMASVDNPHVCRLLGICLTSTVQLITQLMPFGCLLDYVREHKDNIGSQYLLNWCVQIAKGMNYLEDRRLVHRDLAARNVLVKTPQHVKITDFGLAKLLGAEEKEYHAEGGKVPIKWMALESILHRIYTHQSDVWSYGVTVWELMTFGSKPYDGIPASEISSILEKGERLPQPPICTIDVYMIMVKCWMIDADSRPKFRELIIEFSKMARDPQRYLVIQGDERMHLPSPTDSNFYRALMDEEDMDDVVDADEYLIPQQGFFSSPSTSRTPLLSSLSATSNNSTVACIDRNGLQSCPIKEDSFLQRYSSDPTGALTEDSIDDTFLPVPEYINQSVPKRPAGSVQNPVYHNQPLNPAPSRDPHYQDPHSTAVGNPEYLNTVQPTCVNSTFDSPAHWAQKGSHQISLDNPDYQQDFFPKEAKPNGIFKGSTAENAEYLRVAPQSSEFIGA
observation type: Kd (nM)

>>> experimental_value("CCOc1cc2ncc(C#N)c(Nc3ccc(OCc4cccc(F)c4)c(Cl)c3)c2cc1NC(=O)CC1CCSS1 (stereo unspecified)")
120

###

Each record here notes measured Ratio IC50.
# Species on record: Homo sapiens
# assay procedure: Selectivity ratio, ratio of IC50 for probe binding to HER2 (unknown origin) to IC50 for probe binding to EGFR L858R mutant (unknown origin)
observation type: Ratio IC50

>>> experimental_value("CCOc1cc2ncc(C#N)c(Nc3ccc(OCc4cccc(F)c4)c(Cl)c3)c2cc1NC(=O)C1CSSC1")
"> 25"
>>> experimental_value("N#Cc1cnc2ccc(NC(=O)CC3CCSS3)cc2c1Nc1ccc(OCc2cccc(F)c2)c(Cl)c1 (stereo not drawn)")
"> 25"
>>> experimental_value("N#Cc1cnc2cc(OC[C@@H](O)CO)c(NC(=O)C3CSSC3)cc2c1Nc1ccc(OCc2cccc(F)c2)c(Cl)c1")
"> 25"
